molecular target: Matrix metalloproteinase-9 (Homo sapiens)
Sequence (P14780 whole entry): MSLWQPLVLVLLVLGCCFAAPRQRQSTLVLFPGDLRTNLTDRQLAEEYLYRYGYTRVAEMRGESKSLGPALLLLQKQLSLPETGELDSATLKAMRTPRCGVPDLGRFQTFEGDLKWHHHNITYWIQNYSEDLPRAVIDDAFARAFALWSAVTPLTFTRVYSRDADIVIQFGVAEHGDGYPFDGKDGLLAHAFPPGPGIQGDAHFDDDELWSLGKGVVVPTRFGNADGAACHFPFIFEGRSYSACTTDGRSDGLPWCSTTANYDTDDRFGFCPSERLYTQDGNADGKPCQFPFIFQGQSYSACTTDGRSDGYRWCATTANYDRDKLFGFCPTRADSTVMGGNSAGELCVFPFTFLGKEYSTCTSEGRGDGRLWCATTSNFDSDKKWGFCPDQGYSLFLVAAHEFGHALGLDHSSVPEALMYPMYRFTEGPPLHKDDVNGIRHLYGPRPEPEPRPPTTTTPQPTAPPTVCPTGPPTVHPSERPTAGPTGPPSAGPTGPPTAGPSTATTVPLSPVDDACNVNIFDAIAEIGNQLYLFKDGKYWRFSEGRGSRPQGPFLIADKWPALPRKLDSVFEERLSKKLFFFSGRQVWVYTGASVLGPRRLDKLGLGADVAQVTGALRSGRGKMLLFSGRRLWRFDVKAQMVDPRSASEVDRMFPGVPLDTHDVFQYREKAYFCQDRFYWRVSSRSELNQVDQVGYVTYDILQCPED
pIC50: −log10 of the molar value.
Please mark Yes if the recorded pIC50 is equal to or greater than 9, and No if it falls below.

Problem: Has CC1(C)NC(=O)N(CC(CS(=O)(=O)c2ccc(Oc3ccc(C#N)cc3)cc2)N(O)C=O)C1=O (stereo not given) a recorded pIC50 greater than or equal to 9?
Solution: No

Problem: Has O=CN(O)C(CCc1ccc(C(=O)O)cc1)CS(=O)(=O)c1ccc(Oc2ccc(OC(F)(F)F)cc2)cc1 (stereo not given) a recorded pIC50 greater than or equal to 9?
Solution: Yes

Problem: Has O=C(C[C@H](CSc1ccccc1)C(=O)O)c1ccc(-c2ccc(Cl)cc2)cc1 a recorded pIC50 greater than or equal to 9?
Solution: No

====

Readout: log10 IC50 (log10 of the value in µM)
Each number you see is log10 of IC50, and the unit inside the log is µM.

Record for CC1(C)NC(=O)N(CC(CS(=O)(=O)c2ccc(Oc3ccc(C#N)cc3)cc2)N(O)C=O)C1=O (stereo not drawn) under target or system Interstitial collagenase (Homo sapiens): log10 IC50 reported as 0.00

Record for CN(C)S(=O)(=O)CC(CS(=O)(=O)c1ccc(Oc2ccc(OC(F)(F)F)cc2)cc1)N(O)C=O (stereo not drawn) under target or system Interstitial collagenase (Homo sapiens): log10 IC50 reported as 0.82

Record for CS(=O)(=O)N1CCC[C@H]1[C@@H](CS(=O)(=O)c1ccc(Oc2ccc(OC(F)(F)F)cc2)cc1)N(O)C=O under target or system Interstitial collagenase (Homo sapiens): log10 IC50 reported as 0.90

Record for CN(C)CC(CS(=O)(=O)c1ccc(Oc2ccc(OC(F)(F)F)cc2)cc1)N(O)C=O (stereo not drawn) under target or system Interstitial collagenase (Homo sapiens): log10 IC50 reported as 0.72

Record for O=CN(O)C(CSc1cccs1)CS(=O)(=O)c1ccc(Oc2ccc(OC(F)(F)F)cc2)cc1 (stereo not drawn) under target or system Interstitial collagenase (Homo sapiens): log10 IC50 reported as 0.83

Record for CSc1ccc(-c2ccc(S(=O)(=O)CC(CN3C(=O)NC(C)(C)C3=O)N(O)C=O)cc2)cc1 (stereo not drawn) under target or system Interstitial collagenase (Homo sapiens): log10 IC50 reported as -2.54

Record for CN1C(=O)N(CC(CS(=O)(=O)c2ccc(Oc3ccc(Cl)cc3)cc2)N(O)C=O)C(=O)C1(C)C (stereo not drawn) under target or system Interstitial collagenase (Homo sapiens): log10 IC50 reported as -0.55

Record for CC1(C)NC(=O)N(CC(CS(=O)(=O)c2ccc(-c3cccc(CC#N)c3)cc2)N(O)C=O)C1=O (stereo not drawn) under target or system Interstitial collagenase (Homo sapiens): log10 IC50 reported as -1.11

Record for CN(CC(CS(=O)(=O)c1ccc(Oc2ccc(OC(F)(F)F)cc2)cc1)N(O)C=O)S(C)(=O)=O (stereo not drawn) under target or system Interstitial collagenase (Homo sapiens): log10 IC50 reported as 0.30

====

assay: Half life measured as t1/2 in hours after iv administration in cynomolgus monkey; type: ADME, organism-based, Macaca fascicularis; conditions: in vivo
Kindly state half-life for each of the entries shown.
Give the quantity in h, number only.

Per the records, this molecule ( O=CN(O)C(CCN1CCOCC1)CS(=O)(=O)c1ccc(Oc2ccc(OC(F)(F)F)cc2)cc1 (centres undefined) ) has half-life equal to 1.4

Per the records, this molecule ( O=CN(O)C(CCC(=O)N1CCOCC1)CS(=O)(=O)c1ccc(Oc2ccc(OC(F)(F)F)cc2)cc1 (centres undefined) ) has half-life equal to 8.6

Per the records, this molecule ( CN1C(=O)N(CC(CS(=O)(=O)c2ccc(Oc3ccc(OC(F)(F)F)cc3)cc2)N(O)C=O)C(=O)C1(C)C (centres undefined) ) has half-life equal to 0.7

Per the records, this molecule ( CN(C)CC(CS(=O)(=O)c1ccc(Oc2ccc(OC(F)(F)F)cc2)cc1)N(O)C=O (centres undefined) ) has half-life equal to 2.2

====

Kindly state AUC for each of the entries shown.
experiment: AUC in monkey; assay type: ADME; design: concentration or dose not given beside the values; settings: simiiformes, plasma
Give the quantity in µM·h, number only.

Per the records, this molecule ( CN1C(=O)N(CC(CS(=O)(=O)c2ccc(Oc3ccc(Cl)cc3)cc2)N(O)C=O)C(=O)C1(C)C (stereo not drawn) ) has AUC equal to 13

Per the records, this molecule ( O=CN(O)C(CS(=O)(=O)c1ccc(Oc2ccc(OC(F)(F)F)cc2)cc1)C(CO)CO (stereo not drawn) ) has AUC equal to 8

Per the records, this molecule ( CN(C)CC(CS(=O)(=O)c1ccc(Oc2ccc(OC(F)(F)F)cc2)cc1)N(O)C=O (stereo not drawn) ) has AUC equal to 3

Per the records, this molecule ( CC1(C)NC(=O)N(CC(CS(=O)(=O)c2ccc(Oc3ccc(C#N)cc3)cc2)N(O)C=O)C1=O (stereo not drawn) ) has AUC equal to 1

Per the records, this molecule ( CC1(C)NC(=O)N(CC(CS(=O)(=O)c2ccc(-c3ccc(C(F)(F)F)cc3)cc2)N(O)C=O)C1=O (stereo not drawn) ) has AUC equal to 4

Per the records, this molecule ( CCC1(CC)OCC([C@@H](CS(=O)(=O)c2ccc(Oc3ccc(OC(F)(F)F)cc3)cc2)N(O)C=O)O1 (stereo partly drawn) ) has AUC equal to 5

Per the records, this molecule ( O=CN(O)C(CCc1ccc(C(=O)O)cc1)CS(=O)(=O)c1ccc(Oc2ccc(OC(F)(F)F)cc2)cc1 (stereo not drawn) ) has AUC equal to 16

Per the records, this molecule ( O=CN(O)C(CCN1CCOCC1)CS(=O)(=O)c1ccc(Oc2ccc(OC(F)(F)F)cc2)cc1 (stereo not drawn) ) has AUC equal to 10

// provenance: ChEMBL document CHEMBL1135750
